- tested.system: Growth hormone secretagogue receptor type 1 (Homo sapiens, UniProt Q92847)
- Sequence (Q92847 whole entry): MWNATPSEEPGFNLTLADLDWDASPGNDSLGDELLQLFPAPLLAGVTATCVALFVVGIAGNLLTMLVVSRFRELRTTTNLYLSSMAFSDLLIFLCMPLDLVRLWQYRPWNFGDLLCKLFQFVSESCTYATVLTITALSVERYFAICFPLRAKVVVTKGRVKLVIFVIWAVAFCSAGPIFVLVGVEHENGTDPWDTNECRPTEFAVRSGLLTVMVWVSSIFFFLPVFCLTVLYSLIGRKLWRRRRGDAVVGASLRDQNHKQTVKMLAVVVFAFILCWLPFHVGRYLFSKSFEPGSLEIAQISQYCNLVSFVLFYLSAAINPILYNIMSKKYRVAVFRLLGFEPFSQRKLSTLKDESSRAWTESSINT
- procedure.details: Inverse agonist activity at SNAP-tagged human GHSR expressed in HEK293 cells assessed as inhibition of ghrelin-induced IP1 response measured after 30 mins by HTRF assay
Please provide measured EC50 for the entries that follow.
The reply should consist of the numeric value with the unit placed after it.

compound COc1ccc(/C=C(\C#N)C(=O)NCC(=O)N[C@H](Cc2c[nH]c3ccccc23)c2nnc(CCc3ccccc3)n2Cc2ccc(OC)cc2)cc1 , EC50 observed: 0.05 µM

compound COc1ccc(Cn2c(CCc3ccccc3)nnc2[C@@H](Cc2c[nH]c3ccccc23)NC(=O)CNC(=O)/C(C#N)=C/c2ccc(F)cc2)cc1 , EC50 observed: 0.0142 µM

compound COc1ccc(Cn2c(CCc3ccccc3)nnc2[C@@H](Cc2c[nH]c3ccccc23)NC(=O)CNC(=O)/C(C#N)=C/c2ccc(N(C)C)cc2)cc1 , EC50 observed: 0.089 µM

compound COc1ccc(Cn2c(CCN3CCOCC3)nnc2[C@@H](Cc2c[nH]c3ccccc23)NC(=O)CNC(=O)/C(C#N)=C/c2ccc(N(C)C)cc2)cc1 , EC50 observed: 0.006 µM

compound CCN(CC)CCc1nnc([C@@H](Cc2c[nH]c3ccccc23)NC(=O)CNC(=O)/C(C#N)=C/c2ccc(OC)cc2)n1Cc1ccc(OC)cc1 , EC50 observed: 0.035 µM

compound COc1ccc(/C=C(\C#N)C(=O)NCCC(=O)N[C@H](Cc2c[nH]c3ccccc23)c2nnc(CCc3ccccc3)n2Cc2ccc(OC)cc2)cc1 , EC50 observed: 0.0036 µM

compound COc1ccc(Cn2c(CCc3ccccc3)nnc2[C@@H](Cc2c[nH]c3ccccc23)NC(=O)CNC(=O)/C(C#N)=C/c2ccc(C)cc2)cc1 , EC50 observed: 0.0215 µM

compound COc1ccc(Cn2c(CCc3ccccc3)nnc2[C@@H](Cc2c[nH]c3ccccc23)NC(=O)CNC(=O)/C(C#N)=C/c2ccc(O)cc2)cc1 , EC50 observed: 0.027 µM

compound COc1ccc(CC(N)C(=O)NCC(=O)N[C@H](Cc2c[nH]c3ccccc23)c2nnc(CCc3ccccc3)n2Cc2ccc(OC)cc2)cc1 (single isomer, unassigned) , EC50 observed: 0.062 µM

compound COc1ccc(/C=C(\C#N)C(=O)N[C@@H](C)C(=O)N[C@H](Cc2c[nH]c3ccccc23)c2nnc(CCc3ccccc3)n2Cc2ccc(OC)cc2)cc1 , EC50 observed: 0.0014 µM

compound COc1ccc(Cn2c(CCc3ccccc3)nnc2[C@@H](Cc2c[nH]c3ccccc23)NC(=O)CNC(=O)/C(C#N)=C/c2c[nH]c3ccccc23)cc1 , EC50 observed: 0.028 µM
